This collection of values is drawn from patent US20240092761A1.

- measurement_target: CDK2/Cyclin E1 full length (Homo sapiens (Human), UniProt P24941)
- experiment_summary: CDK2/Cyclin E1 Full Length ADP-Glo Kinase Assay
- Format: biochemical
- test_context: 20 uM ATP, given as number, read-out: CDK2/ CyclinE1 IC50
result_type: pIC50
Kindly note that pIC50 refers to -log10 of the concentration in mol/L and answer with the value alone.

Task item: // fetch pIC50 given entry CC(=O)N1CCC2(CCN(c3cccc4cnc(Nc5ccc(N6CCN(C)CC6)cc5)nc34)C2)C1 (stereo not shown)
Reply: 5.29

---

- measurement_target: CDK2/Cyclin E1 full length (Homo sapiens (Human))
- experiment_summary: CDK2/Cyclin E1 Full Length ADP-Glo Kinase Assay
- Type: biochemical
- test_context: 20 uM ATP, read-out: CDK2/ CyclinE1 IC50
result_type: IC50

Task item: Write down the reported IC50 (system: CDK2/Cyclin E1 full length (Homo sapiens (Human))) of `COCCN1CCC2(C1)CN(c1cccc3cnc(NC4CCN(S(C)(=O)=O)CC4)nc13)C2`
Reply: < 200 nM

Task item: Write down the reported IC50 (system: CDK2/Cyclin E1 full length (Homo sapiens (Human))) of CS(=O)(=O)N1CCC(Nc2ncc3cccc(N4CCC4CO)c3n2)CC1 (stereo not shown)
Reply: < 200 nM

Task item: Write down the reported IC50 (system: CDK2/Cyclin E1 full length (Homo sapiens (Human))) of CS(=O)(=O)N1CCC(Nc2ncc3cccc(C4CC(O)(C(F)F)C4)c3n2)CC1 (stereo not shown)
Reply: < 200 nM

Task item: Write down the reported IC50 (system: CDK2/Cyclin E1 full length (Homo sapiens (Human))) of CC(=O)N1CCC2(CCN(c3cccc4cnc(Nc5ccc(N6CC7(C6)CC(F)(F)C7)cn5)nc34)C2)C1 (stereo not shown)
Reply: > 2000 nM

Task item: Write down the reported IC50 (system: CDK2/Cyclin E1 full length (Homo sapiens (Human))) of `CCN1CC2(C1)CN(c1ccc(Nc3ncc4cccc(N5CC6(C5)CC(F)(F)C6)c4n3)nc1)C2`
Reply: > 2000 nM

Task item: Write down the reported IC50 (system: CDK2/Cyclin E1 full length (Homo sapiens (Human))) of `CN1Cc2ccc(Nc3ncc4cc(C(F)F)cc(N5CC6(C5)CN(C5CC5)C6)c4n3)cc2C1`
Reply: < 200 nM

Task item: Write down the reported IC50 (system: CDK2/Cyclin E1 full length (Homo sapiens (Human))) of `O=S(=O)(N1CCC(Nc2ncc3cccc(N4CC5(CNCCC5(F)F)C4)c3n2)CC1)C1(C(F)F)CC1`
Reply: < 200 nM

Task item: Write down the reported IC50 (system: CDK2/Cyclin E1 full length (Homo sapiens (Human))) of CC(=O)N1CCC2(CCC(c3cccc4cnc(NC5CCN(S(C)(=O)=O)CC5)nc34)C2)C1 (stereo not shown)
Reply: < 200 nM

Task item: Write down the reported IC50 (system: CDK2/Cyclin E1 full length (Homo sapiens (Human))) of `O=S(=O)(C1CC1)N1CCC(Nc2ncc3cc(C(F)F)cc(N4CC5(CCNC5)C4)c3n2)CC1`
Reply: < 200 nM

Task item: Write down the reported IC50 (system: CDK2/Cyclin E1 full length (Homo sapiens (Human))) of CS(=O)(=O)N1CCC(Nc2ncc3cc(C(F)F)cc(C4CC5(CCN(CCC(F)(F)F)C5)C4)c3n2)CC1 (stereo not shown)
Reply: < 200 nM

Task item: Write down the reported IC50 (system: CDK2/Cyclin E1 full length (Homo sapiens (Human))) of `COCCN1CC2(CC(c3cc(C(F)F)cc4cnc(NC5CCN(S(C)(=O)=O)CC5)nc34)C2)C1`
Reply: < 200 nM

Task item: Write down the reported IC50 (system: CDK2/Cyclin E1 full length (Homo sapiens (Human))) of `CS(=O)(=O)N1CCC(Nc2ncc3cccc(N4CC5(CCNC5)C4)c3n2)CC1`
Reply: < 200 nM

Task item: Write down the reported IC50 (system: CDK2/Cyclin E1 full length (Homo sapiens (Human))) of `Cn1ncc2cc(Nc3ncc4cc(C(F)F)cc(N5CC6(CCNC6)C5)c4n3)ccc21`
Reply: < 200 nM

Task item: Write down the reported IC50 (system: CDK2/Cyclin E1 full length (Homo sapiens (Human))) of `CCN1CC2(C1)CN(c1ccc(Nc3ncc4cccc(N5CC6(CC(O)C6)C5)c4n3)nc1)C2`
Reply: > 2000 nM

Task item: Write down the reported IC50 (system: CDK2/Cyclin E1 full length (Homo sapiens (Human))) of `CS(=O)(=O)N1CCC(Nc2ncc3cccc(N4CC(F)(F)C5(CNC5)C4)c3n2)CC1`
Reply: < 200 nM

Task item: Write down the reported IC50 (system: CDK2/Cyclin E1 full length (Homo sapiens (Human))) of `CS(=O)(=O)N1CCC(Nc2ncc3cc(C(F)F)cc(N4CC(F)(F)C5(CNC5)C4)c3n2)CC1`
Reply: < 200 nM
